- Measured target: T1, recombinant human DLL3 protein (Kactus Biosystems, Cat. No. DLL-HM103) (human, UniProt Q9NYJ7 27-492, limits assumed)
- T1 construct: Bought protein coated on the ELISA plate; also called Human DLL3 proteins
- T1 sequence (looked up): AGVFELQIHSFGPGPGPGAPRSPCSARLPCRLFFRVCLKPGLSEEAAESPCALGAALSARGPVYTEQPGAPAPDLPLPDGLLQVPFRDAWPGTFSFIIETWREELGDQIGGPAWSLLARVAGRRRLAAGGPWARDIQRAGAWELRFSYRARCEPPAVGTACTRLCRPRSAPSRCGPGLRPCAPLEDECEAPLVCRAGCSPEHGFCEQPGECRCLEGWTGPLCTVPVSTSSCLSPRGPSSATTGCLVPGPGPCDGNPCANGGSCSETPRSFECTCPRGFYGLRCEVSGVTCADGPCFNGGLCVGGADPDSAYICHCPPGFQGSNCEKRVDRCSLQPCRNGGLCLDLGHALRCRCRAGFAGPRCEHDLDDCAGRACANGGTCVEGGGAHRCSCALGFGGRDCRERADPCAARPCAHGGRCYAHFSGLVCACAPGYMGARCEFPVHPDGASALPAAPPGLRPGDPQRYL
- Procedure text: ELISA, human DLL3 coated at 0.1 µg/mL, absorbance at 450 nm
pEC50: −log10 of the molar value.

Binder: D-BATADC (antibody, human IgG1, kappa, L234A L235A, V domains shown, control linker-drug BATLD conjugated to the antibody; average DAR 7.7 per antibody) VH: QVQLVQSGAEVKKPGASVKVSCKASGYTFTDYYMKWVRQAPGQRLEWMGAFNLNNGDTFYNQKFKGRVTITRDTSASTAYMELSSLRSEDTAVYYCARDVYGYGDYWGQGTSVTVSS VL: DIVMTQSPDSLAVSLGERATINCRASKSVSTSGYSYMHWYQQKPGQPPKLLIYLASNLDSGVPDRFSGSGSGTDFTLTISSLQAEDVAVYYCQHSRELPYTFGGGTKLEIKR
pEC50: 11.28

Binder: D-ADC12-1-8 (antibody, human IgG1, kappa, L234A L235A, V domains shown, linker-drug LD12-1 (exatecan payload) conjugated to sulfhydryls of reduced interchain disulfide cysteines; average DAR 8.0 per antibody, Antibody-drug conjugate: 33B + LD12-1, DAR 8.0) VH: QVQLVQSGAEVKKPGASVKVSCKASGYTFTDYYMKWVRQAPGQRLEWMGAFNLNNGDTFYNQKFKGRVTITRDTSASTAYMELSSLRSEDTAVYYCARDVYGYGDYWGQGTSVTVSS VL: DIVMTQSPDSLAVSLGERATINCRASKSVSTSGYSYMHWYQQKPGQPPKLLIYLASNLDSGVPDRFSGSGSGTDFTLTISSLQAEDVAVYYCQHSRELPYTFGGGTKLEIKR
pEC50: 11.23

Binder: D-ADC55-1-8 (antibody, human IgG1, kappa, L234A L235A, V domains shown, linker-drug LD55-1 (exatecan payload) conjugated to sulfhydryls of reduced interchain disulfide cysteines; average DAR 8.0 per antibody, Antibody-drug conjugate: 33B + LD55-1, DAR 8.0) VH: QVQLVQSGAEVKKPGASVKVSCKASGYTFTDYYMKWVRQAPGQRLEWMGAFNLNNGDTFYNQKFKGRVTITRDTSASTAYMELSSLRSEDTAVYYCARDVYGYGDYWGQGTSVTVSS VL: DIVMTQSPDSLAVSLGERATINCRASKSVSTSGYSYMHWYQQKPGQPPKLLIYLASNLDSGVPDRFSGSGSGTDFTLTISSLQAEDVAVYYCQHSRELPYTFGGGTKLEIKR
pEC50: 11.20

Binder: D-ADC2-1-8 (antibody, human IgG1, kappa, L234A L235A, V domains shown, linker-drug LD2-1 (exatecan payload) conjugated to sulfhydryls of reduced interchain disulfide cysteines; average DAR 8.0 per antibody, Antibody-drug conjugate: 33B + LD2-1, DAR 8.0) VH: QVQLVQSGAEVKKPGASVKVSCKASGYTFTDYYMKWVRQAPGQRLEWMGAFNLNNGDTFYNQKFKGRVTITRDTSASTAYMELSSLRSEDTAVYYCARDVYGYGDYWGQGTSVTVSS VL: DIVMTQSPDSLAVSLGERATINCRASKSVSTSGYSYMHWYQQKPGQPPKLLIYLASNLDSGVPDRFSGSGSGTDFTLTISSLQAEDVAVYYCQHSRELPYTFGGGTKLEIKR
pEC50: 11.33

Binder: 33B (antibody, human IgG1, kappa, L234A L235A, V domains shown, Naked anti-DLL3 antibody) VH: QVQLVQSGAEVKKPGASVKVSCKASGYTFTDYYMKWVRQAPGQRLEWMGAFNLNNGDTFYNQKFKGRVTITRDTSASTAYMELSSLRSEDTAVYYCARDVYGYGDYWGQGTSVTVSS VL: DIVMTQSPDSLAVSLGERATINCRASKSVSTSGYSYMHWYQQKPGQPPKLLIYLASNLDSGVPDRFSGSGSGTDFTLTISSLQAEDVAVYYCQHSRELPYTFGGGTKLEIKR
pEC50: 11.73
